- Tested on: 898857-211-R-J1-PDC complex spheroids, growth % test/control;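 note: spheroids exposed to compound for seven days before readout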
- PROTOCOL: Anticancer human tumor 898857-211-R-J1-PDC patient-derived melanoma cell line growth inhibition [RAS]
- CONDITION_SUMMARY: curve of first compound; second compound 0.0316 µM
Field: label. Allowed values: criterion met (IC50 < 400 nM) or criterion not met (IC50 >= 400 nM).

Take a look at these entries with their results.
Determine if CC1(O)CCCC1n1c(=O)c(C(F)F)cc2cnc(NC3CCN(S(C)(=O)=O)CC3)nc21 (centres undefined) + C=CC(=O)N1CCN(c2nc(OCC3CCCN3C)nc3c(F)c(-c4nc(N)cc(C)c4C(F)(F)F)c(Cl)cc23)C(C)C1 shows IC50 strictly lower than 400 nM. criterion met

Determine if Nc1ccn(C2OC(CO)C(O)C2(F)F)c(=O)n1 (centres undefined) + C#Cc1c(F)ccc2cc(O)cc(-c3ncc4c(N5CC6CCC(C5)N6)nc(OCC56CCCN5CC(F)C6)nc4c3F)c12 shows IC50 strictly lower than 400 nM. criterion met

Determine if CCC(CC)c1cc(NC2CCC(N)C2)n2nccc2n1 (centres undefined) + C#Cc1c(F)ccc2cc(O)cc(-c3ncc4c(N5CC6CCC(C5)N6)nc(OCC56CCCN5CC(F)C6)nc4c3F)c12 shows IC50 strictly lower than 400 nM. criterion not met

Determine if CCN1CCN(Cc2ccc(Nc3ncc(F)c(-c4cc(F)c5nc(C)n(C(C)C)c5c4)n3)nc2)CC1 + C#Cc1c(F)ccc2cc(O)cc(-c3ncc4c(N5CC6CCC(C5)N6)nc(OCC56CCCN5CC(F)C6)nc4c3F)c12 shows IC50 strictly lower than 400 nM. criterion met

Determine if CC(Nc1ccc2c(c1)OCCn1cc(N3C(=O)OCC3C(F)F)nc1-2)C(N)=O (centres undefined) + C#Cc1c(F)ccc2cc(O)cc(-c3ncc4c(N5CC6CCC(C5)N6)nc(OCC56CCCN5CC(F)C6)nc4c3F)c12 shows IC50 strictly lower than 400 nM. criterion not met

Determine if CC(=O)OC12COC1CC(O)C1(C)C(=O)C(O)C3=C(C)C(OC(=O)C(O)C(NC(=O)OC(C)(C)C)c4ccccc4)CC(O)(C(OC(=O)c4ccccc4)C21)C3(C)C (centres undefined) + C=CC(=O)N1CCN(c2nc(OCC3CCCN3C)nc3c(F)c(-c4nc(N)cc(C)c4C(F)(F)F)c(Cl)cc23)C(C)C1 shows IC50 strictly lower than 400 nM. criterion met

Further cases:
Determine if Cc1nc(N2CCC3(CC2)COC(C)C3N)c(CO)nc1Sc1ccnc(N)c1Cl (centres undefined) + C=CC(=O)N1CCN(c2nc(OCC3CCCN3C)nc3c(F)c(-c4nc(N)cc(C)c4C(F)(F)F)c(Cl)cc23)C(C)C1 shows IC50 strictly lower than 400 nM. criterion not met

Determine if C[C@@H](NC(=O)c1ncnc(N)c1Cl)c1ncc(C(=O)Nc2cc(C(F)(F)F)c(Cl)cn2)s1 + C#Cc1c(F)ccc2cc(O)cc(-c3ncc4c(N5CC6CCC(C5)N6)nc(OCC56CCCN5CC(F)C6)nc4c3F)c12 shows IC50 strictly lower than 400 nM. criterion not met

Determine if Cc1nc(N2CCC3(CC2)COC(C)C3N)c(CO)nc1Sc1ccnc(N)c1Cl (centres undefined) + C#Cc1c(F)ccc2cc(O)cc(-c3ncc4c(N5CC6CCC(C5)N6)nc(OCC56CCCN5CC(F)C6)nc4c3F)c12 shows IC50 strictly lower than 400 nM. criterion not met

Determine if CC(=O)OC12COC1CC(O)C1(C)C(=O)C(O)C3=C(C)C(OC(=O)C(O)C(NC(=O)OC(C)(C)C)c4ccccc4)CC(O)(C(OC(=O)c4ccccc4)C21)C3(C)C (centres undefined) + C#Cc1c(F)ccc2cc(O)cc(-c3ncc4c(N5CC6CCC(C5)N6)nc(OCC56CCCN5CC(F)C6)nc4c3F)c12 shows IC50 strictly lower than 400 nM. criterion met

Determine if CC(Nc1ccc2c(c1)OCCn1cc(N3C(=O)OCC3C(F)F)nc1-2)C(N)=O (centres undefined) + C=CC(=O)N1CCN(c2nc(OCC3CCCN3C)nc3c(F)c(-c4nc(N)cc(C)c4C(F)(F)F)c(Cl)cc23)C(C)C1 shows IC50 strictly lower than 400 nM. criterion not met
